target.under.test: PKBb (Homo sapiens)
Construct: lines 1-140) and Reaction Biology
Sequence (P31751 whole entry): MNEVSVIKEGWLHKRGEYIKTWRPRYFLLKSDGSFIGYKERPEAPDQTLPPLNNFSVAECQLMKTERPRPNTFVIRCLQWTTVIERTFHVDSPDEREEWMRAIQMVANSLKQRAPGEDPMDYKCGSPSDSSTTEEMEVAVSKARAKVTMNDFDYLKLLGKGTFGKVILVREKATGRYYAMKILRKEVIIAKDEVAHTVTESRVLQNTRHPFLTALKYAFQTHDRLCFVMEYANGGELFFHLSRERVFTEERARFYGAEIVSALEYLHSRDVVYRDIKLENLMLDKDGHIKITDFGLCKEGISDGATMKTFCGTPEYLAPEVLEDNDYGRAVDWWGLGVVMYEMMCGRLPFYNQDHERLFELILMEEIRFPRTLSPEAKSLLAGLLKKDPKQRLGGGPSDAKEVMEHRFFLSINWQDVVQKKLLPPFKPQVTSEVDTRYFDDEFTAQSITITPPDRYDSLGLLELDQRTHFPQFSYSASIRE
run.description: Dundee kinase panel
Type: biochemical
condition.label: read-out: residual activity
Recorded remaining activity at 1 µM by entry
measured.attribute: remaining activity at 1 µM (%)

>>> assay_result("Oc1ncnc2c1c(-c1ccccc1)cn2-c1ccccc1")
95
>>> assay_result("COCCOc1ccc(-c2cn(-c3ccccc3)c3nc[nH]c(=O)c23)cc1")
116
>>> assay_result("O=C1Nc2ccc(I)cc2/C1=C/c1cc(Br)c(O)c(Br)c1")
69
>>> assay_result("O=C1Cc2c([nH]c3ccc(Br)cc23)-c2ccccc2N1")
106

* * *

target.under.test: ASK1 (Homo sapiens, UniProt Q99683)
Construct: lines 1-140) and Reaction Biology
run.description: Dundee kinase panel
Format: biochemical
condition.label: read-out: residual activity
measured.attribute: remaining activity at 1 µM (%)

>>> assay_result("Oc1ncnc2c1c(-c1ccccc1)cn2-c1ccccc1")
93
>>> assay_result("O=C1Cc2c([nH]c3ccc(Br)cc23)-c2ccccc2N1")
68
>>> assay_result("COCCOc1ccc(-c2cn(-c3ccccc3)c3nc[nH]c(=O)c23)cc1")
108
>>> assay_result("O=C1Nc2ccc(I)cc2/C1=C/c1cc(Br)c(O)c(Br)c1")
56

* * *

Recorded remaining activity at 1 µM by entry
target.under.test: MKK2 (Homo sapiens, UniProt P36507)
Construct: lines 1-140) and Reaction Biology
run.description: Dundee kinase panel
Assay type: biochemical
condition.label: read-out: residual activity
measured.attribute: remaining activity at 1 µM (%)

>>> assay_result("Oc1ncnc2c1c(-c1ccccc1)cn2-c1ccccc1 [F1386-0303]")
102
>>> assay_result("COCCOc1ccc(-c2cn(-c3ccccc3)c3nc[nH]c(=O)c23)cc1 [DMX-5804]")
98
>>> assay_result("O=C1Nc2ccc(I)cc2/C1=C/c1cc(Br)c(O)c(Br)c1 [GW5074]")
79
>>> assay_result("O=C1Cc2c([nH]c3ccc(Br)cc23)-c2ccccc2N1 [Kenpaullone]")
91

* * *

target.under.test: TTBK2 (Homo sapiens, UniProt Q6IQ55)
Construct: lines 1-140) and Reaction Biology
Sequence (Q6IQ55 whole entry): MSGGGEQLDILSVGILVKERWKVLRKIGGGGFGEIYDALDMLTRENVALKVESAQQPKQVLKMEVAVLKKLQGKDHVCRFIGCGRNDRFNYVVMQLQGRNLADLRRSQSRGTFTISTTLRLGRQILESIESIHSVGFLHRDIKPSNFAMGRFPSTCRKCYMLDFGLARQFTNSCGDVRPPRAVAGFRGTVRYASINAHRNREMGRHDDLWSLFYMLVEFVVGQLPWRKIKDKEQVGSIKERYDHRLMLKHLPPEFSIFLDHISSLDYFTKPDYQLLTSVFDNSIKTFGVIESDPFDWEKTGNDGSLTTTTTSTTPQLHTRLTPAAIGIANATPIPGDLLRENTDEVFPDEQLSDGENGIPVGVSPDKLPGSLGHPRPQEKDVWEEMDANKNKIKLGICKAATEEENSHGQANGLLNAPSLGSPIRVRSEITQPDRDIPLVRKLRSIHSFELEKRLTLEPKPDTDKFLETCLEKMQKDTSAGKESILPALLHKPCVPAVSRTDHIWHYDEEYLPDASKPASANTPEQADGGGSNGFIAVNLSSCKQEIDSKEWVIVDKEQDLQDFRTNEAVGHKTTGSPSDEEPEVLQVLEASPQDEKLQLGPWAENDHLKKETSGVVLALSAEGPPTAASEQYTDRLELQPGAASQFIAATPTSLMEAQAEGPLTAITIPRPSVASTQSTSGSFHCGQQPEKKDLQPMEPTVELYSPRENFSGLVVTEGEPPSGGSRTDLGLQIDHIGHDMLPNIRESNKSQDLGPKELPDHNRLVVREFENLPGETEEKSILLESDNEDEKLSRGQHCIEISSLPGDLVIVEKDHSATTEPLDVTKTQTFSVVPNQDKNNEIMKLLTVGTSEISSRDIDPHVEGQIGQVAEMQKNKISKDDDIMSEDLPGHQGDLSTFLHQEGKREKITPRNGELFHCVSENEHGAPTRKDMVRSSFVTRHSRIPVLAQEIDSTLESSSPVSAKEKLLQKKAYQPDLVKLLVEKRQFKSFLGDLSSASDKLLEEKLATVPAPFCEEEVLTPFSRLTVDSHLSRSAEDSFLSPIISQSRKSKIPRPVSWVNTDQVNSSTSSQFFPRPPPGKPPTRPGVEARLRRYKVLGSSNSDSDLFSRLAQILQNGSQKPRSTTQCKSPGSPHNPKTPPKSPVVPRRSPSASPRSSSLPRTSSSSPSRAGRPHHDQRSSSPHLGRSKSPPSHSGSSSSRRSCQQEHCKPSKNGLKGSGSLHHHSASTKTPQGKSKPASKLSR
run.description: Dundee kinase panel
Format: biochemical
condition.label: read-out: residual activity
Recorded remaining activity at 1 µM by entry
measured.attribute: remaining activity at 1 µM (%)

>>> assay_result("O=C1Nc2ccc(I)cc2/C1=C/c1cc(Br)c(O)c(Br)c1")
83
>>> assay_result("Oc1ncnc2c1c(-c1ccccc1)cn2-c1ccccc1")
99
>>> assay_result("COCCOc1ccc(-c2cn(-c3ccccc3)c3nc[nH]c(=O)c23)cc1")
108
>>> assay_result("O=C1Cc2c([nH]c3ccc(Br)cc23)-c2ccccc2N1")
95

* * *

target.under.test: recombinant human MAP4K4 (Homo sapiens)
Construct: Human MAP4K4 kinase domain (aa 1-328); purchased Invitrogen PV3687
Sequence (O95819 1-328): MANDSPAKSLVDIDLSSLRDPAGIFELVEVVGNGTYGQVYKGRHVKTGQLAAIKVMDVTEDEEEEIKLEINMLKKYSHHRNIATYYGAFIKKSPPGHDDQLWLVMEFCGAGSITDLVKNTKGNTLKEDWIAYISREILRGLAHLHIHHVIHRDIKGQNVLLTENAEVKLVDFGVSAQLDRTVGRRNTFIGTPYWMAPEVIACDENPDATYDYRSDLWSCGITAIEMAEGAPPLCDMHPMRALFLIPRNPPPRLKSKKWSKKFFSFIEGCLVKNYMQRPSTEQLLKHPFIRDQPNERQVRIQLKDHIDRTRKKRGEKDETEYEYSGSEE
run.description: In vitro MAP4K4 kinase activity assay (HTRF Transcreener ADP)
Format: biochemical
condition.label: dose-response, Figure 2C; read-out: IC50 against recombinant human MAP4K4
measured.attribute: IC50

>>> assay_result("O=C1Nc2ccc(I)cc2/C1=C/c1cc(Br)c(O)c(Br)c1")
"30 nM"
>>> assay_result("Oc1ncnc2c1c(-c1ccccc1)cn2-c1ccccc1")
"34 nM"
>>> assay_result("O=C1Cc2c([nH]c3ccc(Br)cc23)-c2ccccc2N1")
"30 nM"

* * *

target.under.test: EIF2AK3 (Homo sapiens, UniProt Q9NZJ5)
Construct: lines 1-140) and Reaction Biology
Sequence (Q9NZJ5 30-1116): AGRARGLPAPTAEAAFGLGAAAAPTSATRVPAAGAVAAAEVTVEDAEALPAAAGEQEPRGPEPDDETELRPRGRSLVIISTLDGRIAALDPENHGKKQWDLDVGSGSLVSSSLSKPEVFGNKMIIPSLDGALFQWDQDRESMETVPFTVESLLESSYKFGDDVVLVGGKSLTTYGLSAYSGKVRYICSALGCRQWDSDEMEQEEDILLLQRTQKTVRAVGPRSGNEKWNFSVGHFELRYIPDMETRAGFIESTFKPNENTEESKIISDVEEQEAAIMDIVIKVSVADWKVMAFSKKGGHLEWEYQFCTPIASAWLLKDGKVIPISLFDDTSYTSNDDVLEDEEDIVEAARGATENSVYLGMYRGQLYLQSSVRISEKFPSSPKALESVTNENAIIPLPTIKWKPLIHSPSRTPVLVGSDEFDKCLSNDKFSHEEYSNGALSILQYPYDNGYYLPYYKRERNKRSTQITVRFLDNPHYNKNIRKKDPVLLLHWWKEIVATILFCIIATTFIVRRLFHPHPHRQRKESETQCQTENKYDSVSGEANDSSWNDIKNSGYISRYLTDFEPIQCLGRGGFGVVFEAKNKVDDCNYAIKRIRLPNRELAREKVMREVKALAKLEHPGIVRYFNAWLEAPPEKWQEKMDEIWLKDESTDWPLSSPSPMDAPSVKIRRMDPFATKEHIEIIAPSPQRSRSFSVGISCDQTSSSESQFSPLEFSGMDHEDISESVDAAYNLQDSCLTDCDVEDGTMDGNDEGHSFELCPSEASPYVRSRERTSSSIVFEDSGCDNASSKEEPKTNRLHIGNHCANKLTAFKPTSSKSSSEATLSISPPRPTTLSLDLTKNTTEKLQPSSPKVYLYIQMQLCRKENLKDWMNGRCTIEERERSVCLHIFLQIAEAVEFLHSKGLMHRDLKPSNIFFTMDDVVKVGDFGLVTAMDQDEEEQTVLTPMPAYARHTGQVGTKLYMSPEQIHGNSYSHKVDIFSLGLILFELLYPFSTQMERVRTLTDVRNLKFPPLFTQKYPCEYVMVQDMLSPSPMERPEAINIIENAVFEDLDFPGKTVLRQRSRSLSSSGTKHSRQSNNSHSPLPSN
run.description: Dundee kinase panel
Format: biochemical
condition.label: read-out: residual activity
measured.attribute: remaining activity at 1 µM

>>> assay_result("O=C1Cc2c([nH]c3ccc(Br)cc23)-c2ccccc2N1 [Kenpaullone]")
"94%"
>>> assay_result("O=C1Nc2ccc(I)cc2/C1=C/c1cc(Br)c(O)c(Br)c1 [GW5074]")
"85%"
>>> assay_result("COCCOc1ccc(-c2cn(-c3ccccc3)c3nc[nH]c(=O)c23)cc1 [DMX-5804]")
"110%"
>>> assay_result("Oc1ncnc2c1c(-c1ccccc1)cn2-c1ccccc1 [F1386-0303]")
"99%"

* * *

Recorded remaining activity at 1 µM by entry
target.under.test: PKCγ (Homo sapiens)
Construct: lines 1-140) and Reaction Biology
run.description: Dundee kinase panel
Type: biochemical
condition.label: read-out: residual activity
measured.attribute: remaining activity at 1 µM (%)

>>> assay_result("Oc1ncnc2c1c(-c1ccccc1)cn2-c1ccccc1")
105
>>> assay_result("COCCOc1ccc(-c2cn(-c3ccccc3)c3nc[nH]c(=O)c23)cc1")
94
>>> assay_result("O=C1Nc2ccc(I)cc2/C1=C/c1cc(Br)c(O)c(Br)c1")
100
>>> assay_result("O=C1Cc2c([nH]c3ccc(Br)cc23)-c2ccccc2N1")
105

* * *

target.under.test: S6K1 (Homo sapiens, UniProt P23443)
Construct: lines 1-140) and Reaction Biology
Sequence (P23443 whole entry): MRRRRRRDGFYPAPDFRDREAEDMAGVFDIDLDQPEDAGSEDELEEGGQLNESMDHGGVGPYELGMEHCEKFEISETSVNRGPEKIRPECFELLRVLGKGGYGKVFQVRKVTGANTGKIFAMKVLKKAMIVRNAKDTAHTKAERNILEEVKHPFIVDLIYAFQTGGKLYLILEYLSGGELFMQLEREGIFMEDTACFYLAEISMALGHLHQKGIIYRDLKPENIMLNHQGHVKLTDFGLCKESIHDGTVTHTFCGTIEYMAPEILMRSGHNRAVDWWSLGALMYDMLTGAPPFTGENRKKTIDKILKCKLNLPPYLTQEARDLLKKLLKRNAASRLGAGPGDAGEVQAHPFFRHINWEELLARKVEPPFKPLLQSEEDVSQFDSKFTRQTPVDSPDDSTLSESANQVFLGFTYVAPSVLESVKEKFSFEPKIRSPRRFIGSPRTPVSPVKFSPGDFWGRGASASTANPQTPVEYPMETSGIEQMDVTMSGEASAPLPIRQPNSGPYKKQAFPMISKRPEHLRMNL
run.description: Dundee kinase panel
Assay type: biochemical
condition.label: read-out: residual activity
Protocol: Compounds were screened at 1 μM. For key hits, pIC50 values were then determined by HTRF as above. […] Stability in mouse and human liver microsomes was determined by Cyprotex.
measured.attribute: remaining activity at 1 µM (%)

>>> assay_result("O=C1Nc2ccc(I)cc2/C1=C/c1cc(Br)c(O)c(Br)c1 [GW5074]")
87
>>> assay_result("Oc1ncnc2c1c(-c1ccccc1)cn2-c1ccccc1 [F1386-0303]")
105
>>> assay_result("COCCOc1ccc(-c2cn(-c3ccccc3)c3nc[nH]c(=O)c23)cc1 [DMX-5804]")
121
>>> assay_result("O=C1Cc2c([nH]c3ccc(Br)cc23)-c2ccccc2N1 [Kenpaullone]")
97

* * *

Recorded remaining activity at 1 µM by entry
target.under.test: MAP4K3 (Homo sapiens, UniProt Q8IVH8)
Construct: lines 1-140) and Reaction Biology
run.description: Dundee kinase panel
Type: biochemical
condition.label: read-out: residual activity
measured.attribute: remaining activity at 1 µM (%)

>>> assay_result("Oc1ncnc2c1c(-c1ccccc1)cn2-c1ccccc1")
84
>>> assay_result("O=C1Nc2ccc(I)cc2/C1=C/c1cc(Br)c(O)c(Br)c1")
31
>>> assay_result("O=C1Cc2c([nH]c3ccc(Br)cc23)-c2ccccc2N1")
14
>>> assay_result("COCCOc1ccc(-c2cn(-c3ccccc3)c3nc[nH]c(=O)c23)cc1")
41

* * *

Recorded remaining activity at 1 µM by entry
target.under.test: MLK1 (Homo sapiens, UniProt P80192)
Construct: lines 1-140) and Reaction Biology
Sequence (P80192 whole entry): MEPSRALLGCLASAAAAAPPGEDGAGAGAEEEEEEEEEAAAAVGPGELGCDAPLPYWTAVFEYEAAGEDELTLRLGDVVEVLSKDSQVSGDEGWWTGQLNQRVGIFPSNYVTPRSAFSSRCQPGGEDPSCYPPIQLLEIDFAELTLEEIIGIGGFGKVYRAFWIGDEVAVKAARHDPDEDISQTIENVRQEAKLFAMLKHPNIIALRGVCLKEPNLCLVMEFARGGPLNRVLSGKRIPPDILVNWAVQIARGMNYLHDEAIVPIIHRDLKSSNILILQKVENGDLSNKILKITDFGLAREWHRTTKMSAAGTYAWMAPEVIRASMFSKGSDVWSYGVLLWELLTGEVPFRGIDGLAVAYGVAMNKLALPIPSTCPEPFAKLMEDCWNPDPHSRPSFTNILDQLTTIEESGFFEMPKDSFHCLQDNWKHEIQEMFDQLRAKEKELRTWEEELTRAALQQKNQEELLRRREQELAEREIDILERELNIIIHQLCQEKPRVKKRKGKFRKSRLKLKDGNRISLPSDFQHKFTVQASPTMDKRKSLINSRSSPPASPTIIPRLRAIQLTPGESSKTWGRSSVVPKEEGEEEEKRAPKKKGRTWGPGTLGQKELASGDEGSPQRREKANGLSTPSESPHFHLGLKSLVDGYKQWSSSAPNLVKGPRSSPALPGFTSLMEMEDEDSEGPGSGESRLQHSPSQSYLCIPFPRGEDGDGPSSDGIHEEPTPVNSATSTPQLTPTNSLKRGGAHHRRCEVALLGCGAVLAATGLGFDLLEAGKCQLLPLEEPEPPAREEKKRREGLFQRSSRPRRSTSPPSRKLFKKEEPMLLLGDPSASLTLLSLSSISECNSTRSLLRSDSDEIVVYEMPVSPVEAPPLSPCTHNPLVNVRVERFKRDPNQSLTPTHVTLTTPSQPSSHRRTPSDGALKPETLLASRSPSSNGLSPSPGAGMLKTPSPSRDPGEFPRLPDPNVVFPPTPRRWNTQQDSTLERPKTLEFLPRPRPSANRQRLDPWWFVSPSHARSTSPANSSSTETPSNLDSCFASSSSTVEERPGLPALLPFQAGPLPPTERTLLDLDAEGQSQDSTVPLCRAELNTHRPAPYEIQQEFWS
run.description: Dundee kinase panel
Type: biochemical
condition.label: read-out: residual activity
measured.attribute: remaining activity at 1 µM (%)

>>> assay_result("O=C1Cc2c([nH]c3ccc(Br)cc23)-c2ccccc2N1")
99
>>> assay_result("O=C1Nc2ccc(I)cc2/C1=C/c1cc(Br)c(O)c(Br)c1")
85
>>> assay_result("Oc1ncnc2c1c(-c1ccccc1)cn2-c1ccccc1")
43
>>> assay_result("COCCOc1ccc(-c2cn(-c3ccccc3)c3nc[nH]c(=O)c23)cc1")
9

* * *

target.under.test: IKKe (Homo sapiens, UniProt Q14164)
Construct: lines 1-140) and Reaction Biology
Sequence (Q14164 1-716): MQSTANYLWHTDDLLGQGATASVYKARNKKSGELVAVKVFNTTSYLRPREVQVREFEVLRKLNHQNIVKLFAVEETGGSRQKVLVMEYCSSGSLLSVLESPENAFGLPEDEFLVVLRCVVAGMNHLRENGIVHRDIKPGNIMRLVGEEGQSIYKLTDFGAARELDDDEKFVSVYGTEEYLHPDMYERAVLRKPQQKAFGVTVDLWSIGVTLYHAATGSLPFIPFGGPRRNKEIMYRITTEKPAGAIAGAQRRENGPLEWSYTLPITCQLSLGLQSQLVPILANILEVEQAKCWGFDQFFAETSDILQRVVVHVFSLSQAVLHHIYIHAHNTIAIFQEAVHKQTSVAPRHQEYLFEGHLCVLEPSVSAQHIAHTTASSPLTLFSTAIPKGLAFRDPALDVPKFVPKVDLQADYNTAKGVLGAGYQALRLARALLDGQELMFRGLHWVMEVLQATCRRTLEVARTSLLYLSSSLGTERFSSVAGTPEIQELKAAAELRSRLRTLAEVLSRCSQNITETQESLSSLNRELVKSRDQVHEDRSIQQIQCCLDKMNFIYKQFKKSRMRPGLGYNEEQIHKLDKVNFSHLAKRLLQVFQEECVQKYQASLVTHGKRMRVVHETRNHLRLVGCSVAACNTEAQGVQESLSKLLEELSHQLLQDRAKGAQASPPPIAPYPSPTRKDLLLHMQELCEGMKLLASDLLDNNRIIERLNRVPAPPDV
run.description: Dundee kinase panel
Assay type: biochemical
condition.label: read-out: residual activity
measured.attribute: remaining activity at 1 µM (%)

>>> assay_result("O=C1Nc2ccc(I)cc2/C1=C/c1cc(Br)c(O)c(Br)c1")
82
>>> assay_result("COCCOc1ccc(-c2cn(-c3ccccc3)c3nc[nH]c(=O)c23)cc1")
106
>>> assay_result("Oc1ncnc2c1c(-c1ccccc1)cn2-c1ccccc1")
139
>>> assay_result("O=C1Cc2c([nH]c3ccc(Br)cc23)-c2ccccc2N1")
98
